Every entry's value here was drawn from ChEMBL document CHEMBL1806443.

pIC50 values by entry
- System: SW-620
- Test: Antiproliferative activity against human SW620 cells after 72 hrs by MTT assay
- Format: functional, cell-based
- Condition notes: Homo sapiens, SW-620, 72 h
Schema: pIC50 number; meaning minus log10 of the concentration expressed in molar units.

O=[N+]([O-])c1ccc2c(ccc3nc4ncc(Br)cc4n32)c1
4.21
O=[N+]([O-])c1ccc(Cl)c(/C=C/c2nc3ncccc3[nH]2)c1
4.28

Input c1ccc2c(c1)ccc1nc3ncccc3n12 [7,8,11b-triazabenzo[c]fluorene] . Output pIC50: 4.11

Reported pIC50 for O=c1[nH]cc(F)c(=O)[nH]1 was 5.47

Sample Cl.c1cnc2nc3ccc4ccc(C5=NCCN5)cc4n3c2c1 ; pIC50 observed: 6.19

Consider C[n+]1cccc2c1nc1ccc3cc([N+](=O)[O-])ccc3n12 . Its measured pIC50 is 4.57

Field pIC50 (entry C(=C\c1nc2ncccc2[nH]1)/c1ccccc1 ) reads 5.33

Looking up Nc1ccc2c(ccc3nc4ncc(Br)cc4n32)c1 , I found its pIC50 recorded as 4.41

For record Nc1ccc2c(ccc3nc4ncccc4n32)c1 the listed pIC50 is 4.46

Input C[n+]1cccc2c1nc1ccc3ccccc3n12.[I-] . Output pIC50: 4.83
